Target: human β2-adrenergic receptor (Homo sapiens)
Construct: expressed in transfected cells; host or cells: CHO cells
Assay: cAMP accumulation (SPA) in CHO cells transfected with human β2 adrenergic receptor
Assay type: cell-based
Conditions: IA = % activity compound / % activity isoproterenol at 10^−5 M; CHO human β2 cells
Property: beta-2 (IA) maximal response relative to isoproterenol

{"Compound": "O=c1[nH]c2cccc(OCC(O)CNC3CCN(c4ccc(S(=O)(=O)NCc5ccccc5)cc4)CC3)c2[nH]1 (stereo not shown)", "Readout value": "(0)"}

###

Target: human β2-adrenergic receptor (Homo sapiens, UniProt P07550)
Sequence (P07550 whole entry): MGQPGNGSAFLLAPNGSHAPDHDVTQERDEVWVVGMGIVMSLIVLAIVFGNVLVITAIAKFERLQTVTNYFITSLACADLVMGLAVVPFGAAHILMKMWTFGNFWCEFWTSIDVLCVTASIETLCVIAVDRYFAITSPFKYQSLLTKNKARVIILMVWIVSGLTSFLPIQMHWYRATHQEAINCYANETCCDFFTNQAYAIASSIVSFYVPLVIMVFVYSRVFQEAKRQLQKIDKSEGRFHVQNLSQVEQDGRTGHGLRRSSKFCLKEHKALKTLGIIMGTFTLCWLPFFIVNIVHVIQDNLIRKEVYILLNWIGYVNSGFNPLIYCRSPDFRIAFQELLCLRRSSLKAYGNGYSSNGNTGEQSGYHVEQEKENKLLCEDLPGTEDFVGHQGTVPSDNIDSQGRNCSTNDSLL
Assay: cAMP accumulation (SPA) in CHO cells transfected with human β2 adrenergic receptor
Details: CHO cells transfected with human β2-AR; cAMP; 15 min incubation; 10^−8 to 10^−4 M; read-out: beta-2 EC50
pEC50 overview
To interpret pEC50, take it as minus log10 of a concentration measured in moles per litre.

Consider the reported pEC50 for these compounds:
{"Compound": "CCCCNC(=O)NS(=O)(=O)c1ccc(N2CCC(NC[C@H](O)c3ccc(O)c(NS(C)(=O)=O)c3)CC2)cc1 [Example 62]", "pEC50": 5.30}
{"Compound": "CCCCN(CC(=O)O)S(=O)(=O)c1ccc(N2CCC(NC[C@H](O)c3ccc(O)c(NS(C)(=O)=O)c3)CC2)cc1 [Example 20]", "pEC50": 5.00}
{"Compound": "CS(=O)(=O)Nc1cc([C@@H](O)CNC2CCN(c3ccc(S(=O)(=O)N4CC(=O)NC4=O)cc3)CC2)ccc1O [Example 50]", "pEC50": 5.15}
{"Compound": "CS(=O)(=O)Nc1cc(C(O)CNC2CCN(c3ccc(S(=O)(=O)N4CCCC4C(=O)O)cc3)CC2)ccc1O (stereo not shown) [Example 18]", "pEC50": 6.00}
{"Compound": "CS(=O)(=O)Nc1cc([C@@H](O)CNC2CCN(c3ccc(S(=O)(=O)N4CCCC4)cc3)CC2)ccc1O [Example 41]", "pEC50": 5.70}
{"Compound": "CC(C)(C)OC(=O)CNS(=O)(=O)c1ccc(N2CCC(NC[C@H](O)c3ccc(O)c(NS(C)(=O)=O)c3)CC2)cc1 [Example 52]", "pEC50": 6.32}

Let us examine a further case.
[ask] // fetch human β2-adrenergic receptor (Homo sapiens, UniProt P07550) pEC50 for CC#CCC(CC#CC)(C(=O)OC(C)(C)C)S(=O)(=O)c1ccc(N2CCC(NC[C@H](O)c3ccc(O)c(NS(C)(=O)=O)c3)CC2)cc1 [Example 47]
[reply] 5.49
